B1: TRIM35 (parent)
chain: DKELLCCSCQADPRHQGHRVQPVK

variants of: B1; experiment: protein stability index of a GFP-peptide fusion (GPS, HEK-293T) (PSI 1-6); higher = more stable; details: c terminus: a fixed tail appended;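 note: lentivirally expressed fusions sorted by FACS into six bins by GFP to DsRed ratio, PSI derived from sequencing read proportions per bin multiplied by bin number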
Parameter threshold = 4. Response is rule met when protein stability index meets or exceeds it, else rule not met.

>>> label_value("DKELLCCSCQADPRHQGHSVQPVK [R19S]")
"rule not met"
>>> label_value("DKELLCMSCQADPRHQGHRVQPVK [C7M]")
"rule not met"
>>> label_value("DKELLCCSCQADPRHQGHRVQPYK [V23Y]")
"rule not met"
>>> label_value("DKELLWCSCQADPRHQGHRVQPVK [C6W]")
"rule not met"
>>> label_value("DKELLCCSCQADPRHQGHRVQPIK [V23I]")
"rule met"
>>> label_value("DKTLLCCSCQADPRHQGHRVQPVK [E3T]")
"rule not met"
>>> label_value("DKPLLCCSCQADPRHQGHRVQPVK [E3P]")
"rule not met"
>>> label_value("DKECLCCSCQADPRHQGHRVQPVK [L4C]")
"rule met"
>>> label_value("DKELLCCSCQADPRLQGHRVQPVK [H15L]")
"rule not met"
>>> label_value("DKELLCCSCQADPTHQGHRVQPVK [R14T]")
"rule not met"
>>> label_value("DKELTCCSCQADPRHQGHRVQPVK [L5T]")
"rule met"
>>> label_value("DKELLCCSCQMDPRHQGHRVQPVK [A11M]")
"rule not met"
>>> label_value("DKELLCCSCQADPRHQGHRKQPVK [V20K]")
"rule not met"
>>> label_value("DKELLCCSCQADPRHQFHRVQPVK [G17F]")
"rule not met"
>>> label_value("DKELLCCSYQADPRHQGHRVQPVK [C9Y]")
"rule met"
>>> label_value("DKELLCCSIQADPRHQGHRVQPVK [C9I]")
"rule met"
>>> label_value("DKELLCCSVQADPRHQGHRVQPVK [C9V]")
"rule not met"
>>> label_value("DKELLCCSCQADARHQGHRVQPVK [P13A]")
"rule not met"
